test system: M14 melanoma; assay: NCI tumour cell line growth inhibition, 48 h
MEASURED_ENDPOINT: TGI

>>> result("COc1cc(/C=C2\\Oc3cc(OCCCN4CCCC4)ccc3C2=O)cc(OC)c1")
"3.75 µM"
>>> result("O=C(O)CCNC(=O)c1cc(N(CCBr)CCBr)c([N+](=O)[O-])cc1[N+](=O)[O-]")
"> 100 µM"
>>> result("Cc1cc(=O)n2c3c(c4c(cc13)c(CO)cc(=O)n4C)OC2")
"> 100 µM"
>>> result("CCOC(=O)c1ccc2c(c1)nc(/C=C/c1ccc(Cl)cc1)n2-c1cc(C(C)(C)C)[nH]n1")
"> 100 µM"
>>> result("Cc1c(/C=N/NC(=S)Nc2ccccc2)c(=O)n(-c2ccccc2)n1C")
"> 100 µM"
>>> result("CCOC(=O)C1=C(C)N(Cc2ccccc2)C(=O)C1CC#N (stereo not drawn)")
"> 100 µM"
>>> result("CC(=O)Oc1c2c(c(CC=C(C)C)c3c1C(=O)C1=C[C@@H]4CC5C(C)(C)OC(C/C=C(/C)C(=O)O)(C4=O)[C@@]15O3)OC(C)(CCC=C(C)C)C=C2 (stereo partly drawn)")
"0.814 µM"
>>> result("COc1cc(CNC2=NCCC2)cc(OC)c1OC")
"> 100 µM"
>>> result("O=C1C(Cl)C2(CC(/C=C/c3ccccc3O)=NN2c2cccc(S(=O)(=O)O)c2)N1c1nc2ccccc2s1 (stereo not drawn)")
"37.8 µM"
>>> result("CSCC[C@H](NC(=O)[C@H](CC(C)C)NC(=O)[C@@H](Cc1ccccc1)NC(=O)CNC(=O)[C@@H](NC(=O)[C@H](C)NC(=O)[C@H](Cc1c[nH]c2ccccc12)NC(=O)[C@H](CCC(N)=O)NC(=O)[C@H](N)CC(N)=O)C(C)C)C(N)=O")
"> 12.5 µM"
>>> result("C=CCc1cc(C=C(C#N)C#N)cc(OC)c1O")
"> 100 µM"
>>> result("CSc1cc(Br)ccc1-n1c(C(=O)c2ccccc2)c(SC)n(-c2ccccc2)c1=O")
"> 100 µM"
>>> result("COc1cccc(-n2cc(-c3nc(Nc4cc(C)[nH]n4)c4ccccc4n3)nn2)c1")
"9.51 µM"
>>> result("O=C(N=Nc1c(O)[nH]c2ccccc12)c1oc2ccccc2c1CN1CCN(c2ccccc2)CC1")
"8.83 µM"
>>> result("Cc1cc(S(=O)(=O)NC2=NC(c3ccccc3)c3cc(Cl)ccc3N2)c(S)cc1Cl (stereo not drawn)")
"> 100 µM"
>>> result("CO[C@]12C=C/C(=C(/C(=O)OCc3cccnc3)C(=O)CCCCCCCC[C@@]3(OC)C=C/C(=C(/C(=O)OCc4cccnc4)C(=O)CCCCCCCC1)O3)O2")
"3.79 µM"
>>> result("c1ccc(CN2CCC3(CC2)SSC2(CCN(Cc4ccccc4)CC2)SS3)cc1")
"> 100 µM"
>>> result("CC1CCCCN1CC(=O)c1ccc2c(c1)Sc1ccccc1O2 (stereo not drawn)")
"38.3 µM"

* * *

system: SNB-75 CNS; test: NCI tumour cell line growth inhibition, 48 h
MEASURED_ENDPOINT: TGI (µM)

>>> recorded_number("c1ccc(-c2nnc(SCc3c[nH]c4ccccc34)n2-c2ccccc2)cc1")
57.6
>>> recorded_number("COc1cc(C(=O)C2C(=O)c3ccccc3C2C2(O)c3ccccc3CC2C(O)c2cc(OC)c(OC)c(OC)c2)cc(OC)c1OC (stereo unspecified)")
94.3
>>> recorded_number("CN(C)CCC=C1c2ccccc2C(C)(C)c2ccccc21")
17.6
>>> recorded_number("Cn1c(=O)c2ccc(-c3ccc(Br)cc3)nc2n(C)c1=O")
73.5
>>> recorded_number("O=c1c2c(c3ccccc3n1-c1ccccc1)NC(=S)NC2c1ccc(Cl)cc1 (stereo unspecified)")
22.6

* * *

system: NCI-H522 lung; assay: NCI tumour cell line growth inhibition, 48 h
Catalogue of TGI readings, one per entry.
MEASURED_ENDPOINT: TGI (µM)

>>> recorded_number("COC(CC1(/C=C/O[Si](C(C)C)(C(C)C)C(C)C)C(=O)N(COCC[Si](C)(C)C)c2ccccc21)OC (centres undefined)")
23.6
>>> recorded_number("C[C@]12CC[C@H]3[C@@H](CCC4=CC(=O)CC[C@@]43C)[C@@H]1CC[C@@H]2C(=O)COS(=O)(=O)c1ccc(Br)cc1")
2.97

* * *

test system: HCC-2998 colon; experiment: NCI tumour cell line growth inhibition, 48 h
MEASURED_ENDPOINT: TGI (µM)

>>> recorded_number("CCCCCc1cc[n+](CC(=O)c2ccc([N+](=O)[O-])cc2)cc1")
17.6
>>> recorded_number("CC(=O)Oc1c2c(c(CC=C(C)C)c3c1C(=O)C1=C[C@@H]4CC5C(C)(C)OC(C/C=C(/C)C(=O)O)(C4=O)[C@@]15O3)OC(C)(CCC=C(C)C)C=C2 (stereo not given in full)")
1.62

* * *

tested on: SK-MEL-2 melanoma; experiment: NCI tumour cell line growth inhibition, 48 h
Hi, to clarify the labels: Satisfied covers TGI from 40 µM upward, Not satisfied covers anything below 40 µM.

>>> category("C/C=C(/CCC1NCCC2c3ccccc3NC12)[Si](C)(C)C (stereo not given)")
"Not satisfied"
>>> category("O=C(OC[C@H]1C[C@H]2C(=O)CCC[C@H]2O1)c1ccccc1")
"Satisfied"
>>> category("COc1ccc(CNC(C)C(=O)O)cc1 (stereo not given)")
"Satisfied"
>>> category("NC1=NN(c2ccccc2)C(=O)C1/C(=N\\NC(=O)c1cc2ccccc2cc1O)C(=O)Nc1cccc(C(F)(F)F)c1 (stereo not given)")
"Satisfied"
>>> category("c1ccc(N=c2nc(N3CCOCC3)ss2)cc1")
"Satisfied"
>>> category("O=C1C(Nc2ccc(Br)cc2)=C(I)C(=O)c2ncccc21")
"Not satisfied"
>>> category("COC(=O)C1(C(=O)OC)N=C(C)OC1c1ccccn1 (stereo not given)")
"Satisfied"
>>> category("CN(C)c1ccc(-c2c(C#N)c(O)n(NS(=O)(=O)c3ccccc3)c(=O)c2C#N)cc1")
"Satisfied"
>>> category("COC1=CC(=O)c2c(cc(COP(=O)(OCC3OC(n4cc(F)c(=O)[nH]c4=O)CC3O)N(C)CCCCCl)n2C)C1=O (stereo not given)")
"Satisfied"

* * *

Catalogue of TGI readings, one per entry.
test system: COLO 205 colon; assay: NCI tumour cell line growth inhibition, 48 h
MEASURED_ENDPOINT: TGI

>>> result("O=C(Nc1nc(C23CC4CC(CC(C4)C2)C3)cs1)c1cc2cc(Cl)ccc2oc1=O")
"> 100 µM"
>>> result("COC(=O)NN1C(C)=C(C(=O)OC)C2(C#N)C(C(=O)OC)=C(C)N(NC(=O)OC)C12N (centres undefined)")
"> 100 µM"
>>> result("O=C1C=CC(=Nc2ccccc2)c2ccccc21")
"20.3 µM"
>>> result("COC(CC1(/C=C/O[Si](C(C)C)(C(C)C)C(C)C)C(=O)N(COCC[Si](C)(C)C)c2ccccc21)OC (centres undefined)")
"> 100 µM"
>>> result("CCCCCCC/C=C/[C@H]1O[C@]2(O)C(=O)C=C3C[C@@H](O[C@@H]4O[C@H](CO)[C@@H](O)C(O)[C@@H]4O)C[C@@H]3[C@H]2C=C1C (some centres undefined)")
"11.8 µM"
>>> result("CC(=O)c1ccc(Nc2nc(Nc3ccc(F)cc3)nc(Nc3ccc(F)cc3)n2)cc1")
"43.7 µM"
>>> result("COc1cccc(CCNc2c(C#N)c3nc4ccccc4n3c3ccccc23)c1")
"> 47.4 µM"
>>> result("Cc1[nH]n(C(=N)N)c(=O)c1CCO")
"> 100 µM"
>>> result("COc1ccc2c(Cc3c4ccccc4cc4ccccc34)cncc2c1O")
"34.4 µM"

* * *

test system: A498 renal; test: NCI tumour cell line growth inhibition, 48 h
Catalogue of TGI readings, one per entry.
MEASURED_ENDPOINT: TGI

>>> result("Cc1[nH]c(C(=O)Nc2ccccc2OC2CCNCC2)c(Cl)c1Cl")
"9.47 µM"
>>> result("Cc1ccc(C2SCC(=O)N2c2ccc(-c3ccc(-n4c(-c5ccccc5)nc5ccccc5c4=O)cc3)cc2)cc1 (configuration not stated)")
"> 100 µM"
>>> result("CC1SC2(CCC(c3ccccc3)CC2)N(NC(=O)c2[nH]c3ccc(F)cc3c2-c2ccccc2)C1=O (configuration not stated)")
"28.2 µM"
>>> result("CNc1cc2nc3cc(NC)c(C)cc3cc2cc1C")
"3.9 µM"
>>> result("CCOP(=O)(Nc1ccccc1P(=O)(OCC)OCC)OCC")
"> 100 µM"
>>> result("Cc1cc(Cl)ccc1NC(=O)CCCC(=O)C1CCC/C1=N\\NC(=O)CC#N (configuration not stated)")
"> 100 µM"
>>> result("COc1ccc(P2(=S)SP(=S)(c3ccc(Cl)cc3)S2)cc1 (configuration not stated)")
"> 100 µM"
>>> result("C/C(=N\\NC(=S)N1CCN(C2CCCCCC2)CC1)c1ccccn1")
"3.76 µM"
>>> result("COC(=O)c1ccc(NCc2c(O)ccc(O)c2Br)cc1Cl")
"> 100 µM"
>>> result("COc1cc2oc(-c3ccc(O)cc3O)c(CC=C(C)C)c(=O)c2c(O)c1/C=C/C(C)C")
"5.12 µM"
>>> result("Nn1c(CCCCCCCCc2nnc(COc3ccccc3)n2N)nnc1COc1ccccc1")
"> 100 µM"
>>> result("COc1ccc(CNC(C)C(=O)O)cc1 (configuration not stated)")
"> 100 µM"
>>> result("Cc1cc(S(=O)(=O)NC2=NC(c3ccccc3)c3cc(Cl)ccc3N2)c(S)cc1Cl (configuration not stated)")
"> 100 µM"
>>> result("COc1ccc(-c2nnc3n(Cc4ccccc4)c4ccccc4n3c2=O)cc1")
"99.6 µM"
>>> result("O=C(CC1(O)C(=O)Nc2ccccc21)c1ccc(F)cc1 (configuration not stated)")
"> 100 µM"
>>> result("C=CCc1cc(C=C(C#N)C#N)cc(OC)c1O")
"> 100 µM"
>>> result("C[C@]12CCC[C@H](O)[C@H]1C[C@H](CO)CC2")
"> 100 µM"
>>> result("CC(C)OP(=O)(OC(C)C)c1ccc2c(c1)OCCOCCOCCOCCO2")
"> 100 µM"
>>> result("Clc1nc(Cl)c2c3c(sc2n1)CCCC3")
"> 100 µM"
>>> result("CC(=O)Nc1ccc(-c2nc3ccccc3s2)cc1C")
"21.6 µM"
>>> result("CN1CC[C@]2(c3cccc(O)c3)CC(=O)/C(=C/c3ccccc3)[C@H]1C2")
"21.1 µM"
>>> result("N#Cc1ccsc1NC(=O)COC(=O)c1cccc(S(=O)(=O)N2CCc3ccccc32)c1")
"> 100 µM"
